Data provenance: patent US9249129B2

system-name: mTOR (Homo sapiens)
Construct: endogenous in cells; host or cells: Jurkat cells (ATCC TIB-152, clone E6-1), lysate
assay-info: mTOR kinobeads assay (dot blot detection)
Type: binding
condition-summary: Table 2, Jurkat cell lysate, read-out: Inhibition values (IC50) mTor
Protocol: The compounds of the present invention as described were tested in the mTOR kinobeads assay as described below. […] Bound proteins were then eluted and the presence of mTOR, PI3K delta (PI3 Kd) and DNA-dependent protein kinase (DNA-PK) was detected and quantified using a specific antibody in a dot blot procedure and the Odyssey infrared detection system. Dose response curves for individual kinases were generated and IC50 values calculated. […]
pIC50: −log10 of the molar value.
Recorded pIC50 for the following compounds

A selection of reference data follows.
- compound: "C[C@H]1COCCN1c1cc(-c2cncc(F)c2)nc(-c2ccc(NC(=O)NCCO)cc2F)n1"
  assay-result: "6.00 to 7.00"
- compound: "CC(O)CNC(=O)Nc1ccc(-c2cc(-c3cc(F)ccc3S(C)(=O)=O)nc(N3CCOC[C@@H]3C)n2)cc1 (stereo partly drawn)"
  assay-result: "6.00 to 7.00"
- compound: "CCNC(=O)Nc1ccc(-c2cc(-c3cncc(S(C)(=O)=O)c3)nc(N3CCOC[C@@H]3C)n2)cc1"
  assay-result: "5.00 to 6.00"
- compound: "C[C@H]1COCCN1c1cc(-c2cc(F)ccc2S(C)(=O)=O)nc(-c2ccc(NC(=O)NCCF)cc2F)n1"
  assay-result: "5.00 to 6.00"
- compound: "C[C@H]1COCCN1c1ccnc(-c2ccc(NC(=O)NCCO)cc2)n1"
  assay-result: "6.00 to 7.00"

Read the next record carefully.
Input: Give the measured pIC50 of C[C@H]1COCCN1c1ccnc(-c2ccc(NC(=O)NCCF)cc2)n1 .
Output: 6.00 to 7.00

----------
system-name: kinases (kinome) (Homo sapiens)
Construct: determined in kinobeads assays with mass spectrometry detection of kinases as described previously; endogenous in cells; host or cells: cell lysate
Sequence (Q02750 whole entry): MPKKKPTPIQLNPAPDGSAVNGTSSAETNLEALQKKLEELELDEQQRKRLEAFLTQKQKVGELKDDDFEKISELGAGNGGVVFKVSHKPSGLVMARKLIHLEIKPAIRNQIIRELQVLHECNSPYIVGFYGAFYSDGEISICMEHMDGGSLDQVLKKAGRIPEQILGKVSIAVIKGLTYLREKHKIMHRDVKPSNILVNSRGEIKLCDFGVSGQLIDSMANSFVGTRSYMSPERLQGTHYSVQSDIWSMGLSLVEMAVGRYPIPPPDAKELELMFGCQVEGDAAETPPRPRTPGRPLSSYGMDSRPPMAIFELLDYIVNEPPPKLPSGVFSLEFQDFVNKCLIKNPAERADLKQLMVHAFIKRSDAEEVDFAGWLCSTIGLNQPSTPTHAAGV
assay-info: kinobeads assay with mass spectrometry detection of kinases (kinase selectivity profile)
Format: binding
condition-summary: MAP2K1 (STE), IPI00219604
pIC50: −log10 of the molar value.
recorded-metric: pIC50

A selection of reference data follows.
- molecule: "C[C@H]1COCCN1c1nc(-c2ccc(NC(=O)NC3CC3)cc2)cc(-c2cc(F)ccc2S(C)(=O)=O)n1 [Example 40]"
  system-name: "kinases (kinome) (Homo sapiens)"
  pIC50: "< 5.00"
- molecule: "C[C@H]1COCCN1c1nc(-c2ccc(NC(=O)NC3CC3)cc2)cc(-c2ccccc2S(C)(=O)=O)n1 [Example 4]"
  system-name: "kinases (kinome) (Homo sapiens)"
  pIC50: "< 5.00"

Read the next record carefully.
Input: Give the measured pIC50 of C[C@H]1COCCN1c1nc(-c2ccc(NC(=O)N[C@H]3CCC[C@@H]3O)cc2)cc(-c2cc(F)ccc2S(C)(=O)=O)n1 [Example 76] .
Output: < 5.00
